Tested on: DIV30
test method notes: qHTS profiling for inhibitors of Plasmodium falciparum proliferation (AID 504749); also: nearly all actives have a fitted effect of over 60% in size
condition details: P. falciparum in erythrocytes, SYBR Green DNA, 72 h; series mostly up to 28.7 µM
Method: NIH National Institute of Allergy and Infectious Diseases [NIAID] NIH Chemical Genomics Center [NCGC] […] Because mature erythrocytes lack DNA, only Plasmodium-derived DNA is detected. NCGC Assay Protocol Summary: The SYBR Green viability assay was adapted from a method described previously (Plouffe et al., 2008). […] The following morning, fluorescence intensity at 485(14) nm excitation and 535(25) nm emission wavelengths was measured on an EnVision (Perkin Elmer) plate reader. […]
Inconclusive results are not listed. Active and inactive are the calls of the source. Calls follow the shape of the dose curve; as a rule, active = well fitted inhibition curve with a large enough effect; inconclusive = small, poorly fitted or top-dose-only effect; inactive = flat fitted curve, though single readings scatter.
Your response should consist of one outcome taken from active, inactive

Solved entries:
compound	experimental target	discrete label
O=P1(NCCCl)OCCCN1CCCl (configuration not stated)	DIV30	inactive
c1ccc(C2CC2)c(OCC2=NCCN2)c1	DIV30	inactive
NCC(O)c1ccc(O)cc1 (configuration not stated)	DIV30	inactive
Cc1ccc(-c2nc3ccc(C)cn3c2CC(=O)N(C)C)cc1	DIV30	inactive

Switching to the query record.
Q. Please indicate how the test categorized CN1C[C@H](CNC(=O)OCc2ccccc2)C[C@@H]2c3cccc4c3c(cn4C)C[C@H]21 .
A. active
